Values compiled from patent US20200131669A1.

# Lookup of reported Papp A→B at 180 min keyed by entry
ASSAY NOTES: Caco-2 membrane permeability, improved method as used in the following Examples (96-well, 20 to 24 h preincubation)
Format: in vitro ADME
CONDITION NOTES: human, Caco-2, Caco-2 (cm/sec)
Positions of bridges follow the written chain, without caps; N, C: chain ends. Non-standard residues stand in square brackets, D forms with d. Residues, ends and D or L forms follow the SMILES beside them. *: point of attachment. Phe(4-CF3) = N[C@@H](Cc1ccc(C(F)(F)F)cc1)C(=O)O; NMePhe(3-Cl) = CN[C@@H](Cc1cccc(Cl)c1)C(=O)O; NMeF = CN[C@@H](Cc1ccccc1)C(=O)O; NMeD = CN[C@@H](CC(=O)O)C(=O)O; NMeL = CN[C@@H](CC(C)C)C(=O)O; NMeV = CN[C@H](C(=O)O)C(C)C; NMeA = CN[C@@H](C)C(=O)O; Piperidide = C1CCN(*)CC1; NPrGly = CCCNCC(=O)O; Sar = CNCC(=O)O; tBu = CC(C)(C)*
MEASURED ENDPOINT: Papp A→B at 180 min

COMPOUND | EXPERIMENTAL VALUE
CC(C)C[C@H]1C(=O)N[C@@H]([C@@H](C)O)C(=O)N(C)CC(=O)N(C)[C@@H](C(C)C)C(=O)N[C@@H](Cc2ccccc2)C(=O)N(C)[C@@H](Cc2cccc(Cl)c2)C(=O)N(C)[C@@H](CC(C)C)C(=O)N(C)[C@H](C(=O)N2CCCCC2)CC(=O)N2CCC[C@@H]2C(=O)N[C@@H](Cc2ccccc2)C(=O)N[C@@H](COC(C)(C)C)C(=O)N1C [pd163] ([dP]FS(tBu)[NMeL]T[Sar][NMeV]F[NMePhe(3-Cl)][NMeL][NMeD]-Piperidide; lactam N-11) | 1.7 ×10⁻⁶ cm/s
CCCN1CC(=O)N(C)[C@@H](Cc2ccccc2)C(=O)N[C@@H]([C@@H](C)CC)C(=O)N(C)[C@@H](Cc2ccccc2)C(=O)N[C@@H]([C@@H](C)O)C(=O)N(C)CC(=O)N(C)[C@@H](Cc2ccccc2)C(=O)N(C)[C@@H](CC(C)C)C(=O)N[C@@H](COC(C)(C)C)C(=O)N(C)[C@@H](C(C)C)C(=O)N[C@H](C(=O)N2CCCCC2)CC1=O [pd195] ([NPrGly][NMeF]I[NMeF]T[Sar][NMeF][NMeL]S(tBu)[NMeV]D-Piperidide; lactam N-11) | 5 ×10⁻⁶ cm/s
CC(C)C[C@@H]1NC(=O)[C@H](Cc2cccc(Cl)c2)N(C)C(=O)[C@@H](C)NC(=O)C[C@@H](C(=O)N2CCCCC2)NC(=O)[C@H](CC(C)C)N(C)C(=O)[C@H](Cc2ccccc2)N(C)C(=O)[C@H](COC(C)(C)C)NC(=O)[C@H](C(C)C)N(C)C(=O)CN(C)C(=O)[C@H]([C@@H](C)O)NC(=O)[C@H](CC(C)C)N(C)C1=O [pd157] ([dA][NMePhe(3-Cl)]L[NMeL]T[Sar][NMeV]S(tBu)[NMeF][NMeL]D-Piperidide; lactam N-11) | 2.2 ×10⁻⁶ cm/s
CC(C)C[C@H]1C(=O)N[C@@H](COC(C)(C)C)C(=O)N(C)[C@@H](Cc2ccccc2)C(=O)N(C)[C@@H](C)C(=O)N[C@H](C(=O)N2CCCCC2)CC(=O)N[C@H](C(C)C)C(=O)N(C)[C@@H](CC(C)C)C(=O)N[C@@H](Cc2ccc(C(F)(F)F)cc2)C(=O)N(C)[C@@H](CC(C)C)C(=O)N[C@@H]([C@@H](C)O)C(=O)N(C)CC(=O)N1C [pd138] ([dV][NMeL][Phe(4-CF3)][NMeL]T[Sar][NMeL]S(tBu)[NMeF][NMeA]D-Piperidide; lactam N-11) | 2.6 ×10⁻⁶ cm/s
